- target.under.test: MAP2K2 (human) (UniProt P36507)
- Sequence (P36507 whole entry, looked up): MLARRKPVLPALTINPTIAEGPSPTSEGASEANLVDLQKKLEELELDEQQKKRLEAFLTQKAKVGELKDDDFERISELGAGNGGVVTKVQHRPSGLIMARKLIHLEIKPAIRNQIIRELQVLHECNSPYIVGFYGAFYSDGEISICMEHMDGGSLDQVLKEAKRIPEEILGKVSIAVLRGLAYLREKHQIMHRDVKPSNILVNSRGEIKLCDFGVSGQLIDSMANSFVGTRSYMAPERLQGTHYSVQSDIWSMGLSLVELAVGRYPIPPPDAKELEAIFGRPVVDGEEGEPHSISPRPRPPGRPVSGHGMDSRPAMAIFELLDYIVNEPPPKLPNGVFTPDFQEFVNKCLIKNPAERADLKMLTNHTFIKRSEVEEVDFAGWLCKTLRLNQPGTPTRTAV
- experimental.details: KINOMEscan competition binding
- measurement.setup: compound 10.0 µM
List of kinase still bound, per cent of control values.
quantity.name: kinase still bound, per cent of control (%)

[[record]]
compound = "CNC(=O)Nc1ccc(-c2nc(N3CC4CCC(C3)O4)c3cnn(C4CCC5(CC4)OCCO5)c3n2)cc1"
number = 100

[[record]]
compound = "COc1cc2ncnc(Nc3cccc(Cl)c3)c2cc1OC"
number = 25

[[record]]
compound = "CC(=O)c1c(C)c2cnc(Nc3ccc(N4CCNCC4)cn3)nc2n(C2CCCC2)c1=O"
number = 9.1

[[record]]
compound = "N#Cc1cc(-c2ccnc(Nc3ccc(-n4cnc(-c5cccnc5)n4)cc3)n2)cc(N2CCOCC2)c1"
number = 62

[[record]]
compound = "COc1ccc(N(C(=O)Oc2cc(C(=O)Nc3cccc(C(F)(F)F)c3)ccc2C)c2ccnc(Nc3ccc(N4CCN(C)CC4)cc3)n2)c(OC)c1"
number = 100

[[record]]
compound = "COc1cc(C)c(Sc2cnc(NC(=O)c3ccc(CNC(C)C(C)C)cc3)s2)cc1C(=O)N1CCN(C(C)=O)CC1 (centres undefined)"
number = 100

[[record]]
compound = "CCN(CCO)CCCOc1ccc2c(Nc3cc(CC(=O)Nc4cccc(F)c4)[nH]n3)ncnc2c1"
number = 21

[[record]]
compound = "Cc1cn(-c2cc(C(=O)Nc3ccc(C)c(NC(=O)c4ccno4)c3)cc(C(F)(F)F)c2)cn1"
number = 100

[[record]]
compound = "CCN1CCN(Cc2ccc(NC(=O)c3ccc(C)c(/C=C/c4cnc5[nH]ccc5c4OC)c3)cc2C(F)(F)F)CC1"
number = 58


* * *

- target.under.test: MAK (human) (UniProt P20794)
- Sequence (P20794 whole entry, looked up): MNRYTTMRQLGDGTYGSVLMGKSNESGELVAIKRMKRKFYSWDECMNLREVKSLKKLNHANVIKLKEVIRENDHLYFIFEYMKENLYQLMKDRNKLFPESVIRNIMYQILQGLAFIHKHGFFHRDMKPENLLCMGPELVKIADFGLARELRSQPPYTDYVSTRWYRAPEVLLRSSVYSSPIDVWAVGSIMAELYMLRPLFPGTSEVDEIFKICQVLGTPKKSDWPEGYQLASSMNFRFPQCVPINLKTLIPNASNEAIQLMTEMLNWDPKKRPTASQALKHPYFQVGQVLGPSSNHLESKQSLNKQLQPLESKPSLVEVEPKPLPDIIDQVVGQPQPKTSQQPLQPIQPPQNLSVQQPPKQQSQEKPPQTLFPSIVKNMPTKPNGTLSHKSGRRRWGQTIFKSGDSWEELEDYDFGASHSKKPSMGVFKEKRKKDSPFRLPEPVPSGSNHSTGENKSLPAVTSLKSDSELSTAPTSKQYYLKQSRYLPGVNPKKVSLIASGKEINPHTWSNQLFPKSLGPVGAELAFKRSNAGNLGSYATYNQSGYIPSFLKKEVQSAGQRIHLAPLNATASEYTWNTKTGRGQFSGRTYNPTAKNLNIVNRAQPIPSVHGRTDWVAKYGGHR
- experimental.details: KINOMEscan competition binding
- measurement.setup: compound 10.0 µM
List of kinase still bound, per cent of control values.
quantity.name: kinase still bound, per cent of control (%)

[[record]]
compound = "O=c1[nH]c2ccccc2n1C1CCN(Cc2ccc(-c3nc4cc5[nH]cnc5cc4nc3-c3ccccc3)cc2)CC1"
number = 100

[[record]]
compound = "CCc1nc(-c2cccc(C)c2)c(-c2ccnc(NC(=O)c3ccccc3)c2)s1"
number = 70

[[record]]
compound = "N#C/C(=C1/Nc2ccccc2S1)c1ccnc(NCCc2cccnc2)n1"
number = 100

[[record]]
compound = "CCOc1cc(N2CCC(O)CC2)ccc1Nc1ncc2c(n1)N(C)c1ccccc1C(=O)N2C"
number = 100

[[record]]
compound = "CC1=C(C(=O)Nc2cc3cn[nH]c3cc2F)C(c2ccc(C(F)(F)F)cc2)CC(=O)N1 (stereo not given)"
number = 100

[[record]]
compound = "CCN1CCN(Cc2ccc(NC(=O)c3ccc(C)c(/C=C/c4cnc5[nH]ccc5c4OC)c3)cc2C(F)(F)F)CC1"
number = 100

[[record]]
compound = "CCN(CCO)CCCOc1ccc2c(Nc3cc(CC(=O)Nc4cccc(F)c4)[nH]n3)ncnc2c1"
number = 92

[[record]]
compound = "C=CC(=O)Nc1ccc(C(=O)c2sc(Nc3ccc(N4CCN(C)CC4)cc3OC)nc2N)cc1"
number = 100

[[record]]
compound = "N#Cc1cc(-c2ccnc(Nc3ccc(-n4cnc(-c5cccnc5)n4)cc3)n2)cc(N2CCOCC2)c1"
number = 49

[[record]]
compound = "COc1cc2c(Nc3ccc(NC(=O)c4ccccc4)cc3)ncnc2cc1OCCCN1CCOCC1"
number = 59

[[record]]
compound = "COc1cc2ncnc(Nc3cccc(Cl)c3)c2cc1OC"
number = 100

[[record]]
compound = "Cc1cn(-c2cc(C(=O)Nc3ccc(C)c(NC(=O)c4ccno4)c3)cc(C(F)(F)F)c2)cn1"
number = 100

[[record]]
compound = "CNC(=O)Nc1ccc(-c2nc(N3CC4CCC(C3)O4)c3cnn(C4CCC5(CC4)OCCO5)c3n2)cc1"
number = 100

[[record]]
compound = "CCCS(=O)(=O)Nc1ccc(F)c(C(=O)c2c[nH]c3ncc(Cl)cc23)c1F"
number = 71

[[record]]
compound = "CC(=O)c1c(C)c2cnc(Nc3ccc(N4CCNCC4)cn3)nc2n(C2CCCC2)c1=O"
number = 76


Entry source: the kinase profiling compilation of Christmann-Franck et al. (2016)
